- System: HEK-293T
- RUN_DESCRIPTION: Multiplex assay against HEK293T
- Assay type: toxicity, cell-based
- CONDITION_DESCRIPTION: human, 12 h, 10 µM, compound concentration 10 uM, replicate 2
Threshold check on Population Fragmented Nuclei (%): at or above 5% gives Yes, strictly below gives No.

Given CC(C)CC(=O)Nc1[nH]nc2c1CN(C(=O)C1CCN(C)CC1)C2(C)C [PHA-793887] , state whether its Population Fragmented Nuclei (%) is at least 5%. Yes

Given O=c1cc(N2CCOCC2)oc2c(-c3cccc4c3sc3ccccc34)cccc12 , state whether its Population Fragmented Nuclei (%) is at least 5%. Yes

Given Cc1cccc(CN2CCN(C(c3ccccc3)c3ccc(Cl)cc3)CC2)c1.Cl.Cl (centres undefined) , state whether its Population Fragmented Nuclei (%) is at least 5%. Yes

Given C=CC(=O)Nc1cccc(Sc2nc(Nc3ccc(N4CCN(C)CC4)cc3)ncc2Cl)c1 , state whether its Population Fragmented Nuclei (%) is at least 5%. Yes

Given C=CC(=O)Nc1ccc2[nH]c(=O)n(C3CCN(Cc4ccc(-c5nc6cc[nH]c(=O)c6cc5-c5ccccc5)cc4)CC3)c2c1 [Borussertib] , state whether its Population Fragmented Nuclei (%) is at least 5%. No

Given CCCSc1nc(N[C@@H]2C[C@H]2c2ccc(F)c(F)c2)c2nnn([C@@H]3C[C@H](OCCO)[C@@H](O)[C@H]3O)c2n1 [TICAGRELOR] , state whether its Population Fragmented Nuclei (%) is at least 5%. Yes

Given COc1cc2ncn(-c3cc(OCc4ccccc4C(F)(F)F)c(C(N)=O)s3)c2cc1OC [GW843682X] , state whether its Population Fragmented Nuclei (%) is at least 5%. Yes

Given CNC(=O)Nc1ccc(-c2nc(N3CC4CCC(C3)O4)c3cnn(C4CCC5(CC4)OCCO5)c3n2)cc1 , state whether its Population Fragmented Nuclei (%) is at least 5%. Yes

Given CCC1=C[C@@H]2C[N@](C1)Cc1c([nH]c3ccccc13)[C@@](C(=O)OC)(c1cc3c(cc1OC)N(C)[C@H]1[C@@](O)(C(=O)OC)[C@H](OC(C)=O)[C@]4(CC)C=CCN5CC[C@]31[C@@H]54)C2.O=C(O)C(O)C(O)C(=O)O.O=C(O)C(O)C(O)C(=O)O [VINORELBINE TARTRATE] , state whether its Population Fragmented Nuclei (%) is at least 5%. No

Given COc1ccccc1CN[C@H]1C2CCN(CC2)[C@H]1C(c1ccccc1)c1ccccc1 [CP-96345] , state whether its Population Fragmented Nuclei (%) is at least 5%. No

Given CCOC(=O)Nc1cc(-c2ccc(C)c(NS(C)(=O)=O)c2)nn2c(C)nnc12 , state whether its Population Fragmented Nuclei (%) is at least 5%. Yes

----------
- Tested on: Fibroblast
- RUN_DESCRIPTION: Multiplex assay against human fibroblast
- Type: toxicity, cell-based
- CONDITION_DESCRIPTION: 24 h, 10 µM, compound concentration 10 uM, replicate 2
Exercise: state measured Population Healthy Nuclei (%) for each of the compounds provided.
Write the quantity with the unit trailing the number.

Find the measured Population Healthy Nuclei (%) of Cl.O=C(O)c1cc(-c2ccc(C3CCNCC3)cc2)c2ccc(-c3ccc(C(F)(F)F)cc3)cc2c1 with Fibroblast as test system. 61%

Find the measured Population Healthy Nuclei (%) of CC(C)Oc1ccccc1C(=O)Nc1ccccc1C(=O)Nc1cccc(S(=O)(=O)C(F)(F)F)c1 with Fibroblast as test system. 56%

Find the measured Population Healthy Nuclei (%) of O=c1[nH]c2ccccc2n1C1CCN(Cc2ccc(-c3[nH]c4cc5ncnc5cc4nc3-c3ccccc3)cc2)CC1 with Fibroblast as test system. 36%

Find the measured Population Healthy Nuclei (%) of CNC(=O)Nc1ccc(-c2nc(N3CC4CCC(C3)O4)c3cnn(C4CCC5(CC4)OCCO5)c3n2)cc1 with Fibroblast as test system. 42%

Find the measured Population Healthy Nuclei (%) of C=CC(=O)Nc1cccc(Oc2nc(Nc3ccc(N4CCN(C)CC4)cc3OC)ncc2Cl)c1 with Fibroblast as test system. 35%

Find the measured Population Healthy Nuclei (%) of Cc1ccc(C)c(Oc2ccncc2C(=O)N2CCN(C3CC3)c3ccccc32)c1 with Fibroblast as test system. 66%

Find the measured Population Healthy Nuclei (%) of COc1ccccc1CN[C@H]1C2CCN(CC2)[C@H]1C(c1ccccc1)c1ccccc1 [CP-96345] with Fibroblast as test system. 81%

Find the measured Population Healthy Nuclei (%) of COc1ccc(-c2ccc3ncc4c(c3c2)n(-c2ccc(N3CCNCC3)c(C(F)(F)F)c2)c(=O)n4C)cn1.O=C(O)/C=C\C(=O)O [BGT-226] with Fibroblast as test system. 10%

Find the measured Population Healthy Nuclei (%) of C[C@]12CC[C@@H]3c4ccc(O)cc4CC[C@H]3[C@@H]1CC[C@@H]2O [ESTRADIOL] with Fibroblast as test system. 68%

Find the measured Population Healthy Nuclei (%) of CC(C)OC(=O)N1CCC(Oc2ncnc3c2cnn3-c2ccc(S(C)(=O)=O)cc2F)CC1 with Fibroblast as test system. 87%

Find the measured Population Healthy Nuclei (%) of CCCSc1nc(N[C@@H]2C[C@H]2c2ccc(F)c(F)c2)c2nnn([C@@H]3C[C@H](OCCO)[C@@H](O)[C@H]3O)c2n1 [TICAGRELOR] with Fibroblast as test system. 73%

Find the measured Population Healthy Nuclei (%) of CC(C)(C)NC[C@H](O)COc1nsnc1N1CCOCC1 [TIMOLOL] with Fibroblast as test system. 81%

Find the measured Population Healthy Nuclei (%) of CN1CCN(Cc2ccc(Nc3ncc(Cl)c(Nc4ccccc4S(=O)(=O)N(C)C)n3)cc2)CC1 [DUBERMATINIB] with Fibroblast as test system. 33%

Find the measured Population Healthy Nuclei (%) of Cc1ccccc1C(c1ccccc1C)N1C2CCC1CC(O)(c1ccccc1)C2 (centres undefined) with Fibroblast as test system. 65%

Find the measured Population Healthy Nuclei (%) of Cc1ccc2c(c1)c1c(n2CCc2ccc(C)nc2)CCN(C)C1 [LATREPIRDINE] with Fibroblast as test system. 56%

Find the measured Population Healthy Nuclei (%) of CNC(=O)Nc1ccc2c(c1)[C@@]1(CC2)OC(=O)N(CC(=O)N(Cc2ccc(F)cc2)[C@@H](C)C(F)(F)F)C1=O [A-486] with Fibroblast as test system. 40%

Find the measured Population Healthy Nuclei (%) of Cc1nc(N2CC[C@H](O)C2)ncc1-c1cc(C(F)(F)F)cc2[nH]ncc12 with Fibroblast as test system. 22%

Find the measured Population Healthy Nuclei (%) of Cc1c[nH]c2nccc(Oc3c(F)cc(Nc4cc(Cl)nc(N)n4)cc3F)c12 [BAY-549] with Fibroblast as test system. 62%

Find the measured Population Healthy Nuclei (%) of COC(=O)C1=C(C)NC(C)=C(C(=O)OCCCN2CCC(c3ccccc3)(c3ccccc3)CC2)[C@H]1c1cccc([N+](=O)[O-])c1 [NIGULDIPINE] with Fibroblast as test system. 25%

----------
Exercise: state measured Population Normal (%) for each of the compounds provided.
- System: Fibroblast
- RUN_DESCRIPTION: Multiplex assay against human fibroblast
- Format: toxicity, cell-based
- CONDITION_DESCRIPTION: 12 h, 1 µM, compound concentration 1 uM, replicate 2
Kindly provide the numeric value in % only, without the unit symbol.

Return the recorded Population Normal (%) value; entry: O=c1cc(N2CCOCC2)oc2c(-c3cccc4c3sc3ccccc34)cccc12 90

Return the recorded Population Normal (%) value; entry: O=C(c1cc2c(cc1F)OC(c1ccc(F)cc1)(c1ccc(Cl)cc1Cl)O2)N1CCOCC1 (centres undefined) 92

Return the recorded Population Normal (%) value; entry: CC(C)OC(=O)N1CCC(Oc2ncnc3c2cnn3-c2ccc(S(C)(=O)=O)cc2F)CC1 92

Return the recorded Population Normal (%) value; entry: CC1=C(C(=O)Nc2cc3cn[nH]c3cc2F)C(c2ccc(C(F)(F)F)cc2)CC(=O)N1 (centres undefined) 89

Return the recorded Population Normal (%) value; entry: CC(C)NC(=O)N1CC[C@H](NC2=Nc3cc(F)ccc3N(CC(F)F)c3ccc(Cl)cc32)C1 90

Return the recorded Population Normal (%) value; entry: Cc1ccc(C)c(Oc2ccncc2C(=O)N2CCN(C3CC3)c3ccccc32)c1 89

Return the recorded Population Normal (%) value; entry: Cc1cccc(CN2CCN(C(c3ccccc3)c3ccc(Cl)cc3)CC2)c1.Cl.Cl (centres undefined) 91

Return the recorded Population Normal (%) value; entry: Cc1ccccc1C(c1ccccc1C)N1C2CCC1CC(O)(c1ccccc1)C2 (centres undefined) 90

Return the recorded Population Normal (%) value; entry: Cc1nc(N2CC[C@H](O)C2)ncc1-c1cc(C(F)(F)F)cc2[nH]ncc12 60

Return the recorded Population Normal (%) value; entry: COC(=O)C1=C(C)NC(C)=C(C(=O)OCCCN2CCC(c3ccccc3)(c3ccccc3)CC2)[C@H]1c1cccc([N+](=O)[O-])c1 90

Return the recorded Population Normal (%) value; entry: CCOC(=O)Nc1cc(-c2ccc(C)c(NS(C)(=O)=O)c2)nn2c(C)nnc12 64

Return the recorded Population Normal (%) value; entry: CNC(=O)Nc1ccc(-c2nc(N3CC4CCC(C3)O4)c3cnn(C4CCC5(CC4)OCCO5)c3n2)cc1 89

Return the recorded Population Normal (%) value; entry: CNC(=O)Nc1ccc2c(c1)[C@@]1(CC2)OC(=O)N(CC(=O)N(Cc2ccc(F)cc2)[C@@H](C)C(F)(F)F)C1=O 65

Return the recorded Population Normal (%) value; entry: CC(C)(C)NC[C@H](O)COc1nsnc1N1CCOCC1 92
